Target: glutathione-S-transferase (GST) tagged LXRbeta LBD (ligand binding domain) (Homo sapiens, UniProt P55055)
Construct: purchased Invitrogen pv4658
Sequence (P55055 222-460 limits assumed): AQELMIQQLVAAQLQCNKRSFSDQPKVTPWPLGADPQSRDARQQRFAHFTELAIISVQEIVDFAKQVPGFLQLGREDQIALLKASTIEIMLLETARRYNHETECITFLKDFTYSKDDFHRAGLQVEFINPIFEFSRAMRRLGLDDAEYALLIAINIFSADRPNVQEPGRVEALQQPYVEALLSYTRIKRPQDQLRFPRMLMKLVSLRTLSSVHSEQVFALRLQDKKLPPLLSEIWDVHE
Assay: LanthaScreen TR-FRET Liver X Receptor Coactivator Assay, LXR beta
Format: biochemical
Conditions: LXR beta IP, potency (Inflection Point), compound-induced co-activator recruitment, TR-FRET
property label: EC50 (nM)

Examples with their reported EC50 follow.
compound: CN(C)C(=O)c1ccc(OCCCCC2CCN(C(=O)C(O)(c3ccccc3)C(F)(F)F)CC2)nc1Cl (single isomer, unassigned) [Example 3-17]
result unit: nM
EC50: 8
//
compound: CN(C)C(=O)c1ccc(OCCC2CC23CCN(C(=O)C(C)(C)c2ccccc2)CC3)nc1Cl (stereo not shown)
result unit: nM
EC50: 5
//
compound: CN(C)C(=O)c1ccc(OCCC2CC23CCN(C(=O)C2(c4cc(F)ccc4F)CCC2)CC3)cc1Cl (single isomer, unassigned)
result unit: nM
EC50: 12
//
compound: CC(COc1ccc(C(=O)N(C)C)c(Cl)c1)CC(C)C1CCN(C(=O)C(O)(c2ccccc2)C(F)(F)F)CC1 (single isomer, unassigned)
result unit: nM
EC50: 25
//
compound: CN(C)C(=O)c1ccc(OCCCCC2CCN(C(=O)C(O)(c3cccc(OC(F)(F)F)c3)C(F)(F)F)CC2)cc1Cl (single isomer, unassigned)
result unit: nM
EC50: 15
//
compound: COc1cccc(C(O)(C(=O)N2CCC3(CCC(Oc4ccc(C(=O)N(C)C)c(Cl)n4)CC3)CC2)C(F)(F)F)c1 (single isomer, unassigned) [Example 1-3]
result unit: nM
EC50: 75

a = CN(C)C(=O)c1ccc(O[C@H]2C[C@@H](CC3CCN(C(=O)[C@](O)(c4cccc(OC5CC5)c4)C(F)(F)F)CC3)C2)cc1Cl (single isomer, unassigned)
b = CN(C)C(=O)c1ccc(OCCC2CC23CCN(C(=O)C2(c4ccccc4Cl)CCC2)CC3)cc1Cl (single isomer, unassigned)
c = O=C(NCC(F)F)c1ccc(OCCCCC2CCN(C(=O)[C@](O)(c3ccccc3)C(F)(F)F)CC2)cc1Cl (single isomer, unassigned)
(Q) Sort the 3 compounds by EC50; largest first, smallest last. # format: label list in the order the request specifies
(A) c, a, b
(c: 94 nM, a: 40 nM, b: 3 nM)

1 = CN(C)C(=O)c1ccc(OCCCCC2CCN(C(=O)C3(c4ccccc4)CCC3)CC2)cc1Cl
2 = CC(C)(C)OC(=O)NC1CN(C(=O)c2ccc(OCCCCC3CCN(C(=O)[C@](O)(c4ccccc4)C(F)(F)F)CC3)cc2Cl)C1 (single isomer, unassigned)
3 = CCNC(=O)c1ccc(OCCCCC2CCN(C(=O)[C@](O)(c3ccccc3)C(F)(F)F)CC2)cc1Cl (single isomer, unassigned)
4 = C[C@H](CCCC1CCN(C(=O)[C@](O)(c2ccccc2)C(F)(F)F)CC1)Oc1ccc(C(=O)N(C)C)c(Cl)c1 (single isomer, unassigned)
(Q) Sort the 4 compounds by EC50; largest first, smallest last. # format: label list in the order the request specifies
(A) 4, 1, 3, 2
(4: 101 nM, 1: 57 nM, 3: 30 nM, 2: 18 nM)

a = CC(CCCOc1ccc(C(=O)N(C)C)c(Cl)c1)C1CCN(C(=O)C(O)(c2ccccc2)C(F)(F)F)CC1 (single isomer, unassigned) [Example 26-3]
b = CN(C(=O)c1ccc(OCCCCC2CCN(C(=O)[C@](O)(c3ccccc3)C(F)(F)F)CC2)cc1Cl)[C@H]1CCOC1 (single isomer, unassigned)
c = CN(C)C(=O)c1ccc(OCC[C@@H]2CC23CCN(C(=O)C(C)(c2ccccc2)C2CCC2)CC3)cc1Cl (single isomer, unassigned)
d = CN(C)C(=O)c1ccc(OCC[C@H]2CC23CCN(C(=O)[C@](N)(c2ccccc2)C(F)(F)F)CC3)cc1Cl (single isomer, unassigned)
(Q) Sort the 4 compounds by EC50; largest first, smallest last. # format: label list in the order the request specifies
(A) d, c, b, a
(d: 50 nM, c: 22 nM, b: 10 nM, a: 6 nM)

I = COc1cccc([C@](O)(C(=O)N2CCC3(CC2)C[C@@H]3CCCOc2ccc(C(=O)N(C)C)c(Cl)c2)C(F)(F)F)c1 (single isomer, unassigned)
II = CN(C)C(=O)c1ccc(OCCC[C@@H]2CC23CCN(C(=O)[C@@](O)(c2ccccc2)C(F)(F)F)CC3)nc1Cl (single isomer, unassigned)
III = CC(C)C(O)(C(=O)N1CCC(C2CC2COc2ccc(C(=O)N(C)C)c(Cl)c2)CC1)C(F)(F)F (single isomer, unassigned) [Example 32-2]
IV = CC(C)N(C)C(=O)c1ccc(OCCCCC2CCN(C(=O)[C@](O)(c3ccccc3)C(F)(F)F)CC2)cc1Cl (single isomer, unassigned)
(Q) I would appreciate it if you could sort these 4 compounds by EC50, starting from the smallest number. # format: label list in the order the request specifies
(A) I, IV, II, III
(I: 9 nM, IV: 17 nM, II: 65 nM, III: 206 nM)

---

Molecular target: glutathione-S-transferase (GST) tagged LXRalpha LBD (ligand binding domain) (Homo sapiens, UniProt Q13133)
Construct: purchased Invitrogen pv4655
Assay: biochemical
Conditions: efficacy (% Emax) in relation to reference dual agonist T0901317; read-out: LXR alpha actiivty at max dose
property label: Emax (%)

Examples with their reported Emax follow.
molecule: CN(C)C(=O)c1ccc(OCC(F)CCC2CCN(C(=O)C(O)(c3ccccc3)C(F)(F)F)CC2)cc1Cl (single isomer, unassigned)
result unit: %
recorded number: 26

molecule: C[C@H](CCCC1CCN(C(=O)[C@](O)(c2ccccc2)C(F)(F)F)CC1)Oc1ccc(C(=O)N(C)C)c(Cl)c1 (single isomer, unassigned)
result unit: %
recorded number: 29

molecule: CN(C)C(=O)c1ccc(OCCCC2CC3(CCN(C(=O)C(O)(c4ccccc4)C(F)(F)F)CC3)C2)cc1Cl (single isomer, unassigned)
result unit: %
recorded number: 27

1 = CN(C)C(=O)c1ccc(OCC[C@H]2C[C@H]2C2CCN(C(=O)[C@](O)(c3ccccc3)C(F)(F)F)CC2)cc1C#N (single isomer, unassigned)
2 = COc1cccc(C(O)(C(=O)N2CCC(CCCCOc3ccc(C(=O)N(C)C)c(OC)c3)CC2)C(F)(F)F)c1 (single isomer, unassigned)
(Q) Of 1 and 2 , whose reported Emax is numerically smaller? Please respond with the label that marks your chosen entry.
(A) 2

---

Target: glutathione-S-transferase (GST) tagged LXRalpha LBD (ligand binding domain) (Homo sapiens)
Construct: purchased Invitrogen pv4655
Test: biochemical
Details: read-out: LXR alpha actiivty at max dose
property label: Emax (%)

compound: CN(C)C(=O)c1ccc(OCCCC2CCN(C(=O)c3cc(F)ccc3F)CC2)cc1Cl
Emax [%]: 32

compound: COc1cccc([C@@](O)(C(=O)N2CCC([C@H]3C[C@H]3CCOc3ccc(C(=O)N(C)C)c(Cl)c3)CC2)C(F)(F)F)c1 (single isomer, unassigned)
Emax [%]: 14

I = CN(C)C(=O)c1ccc(O[C@H]2C[C@@H](CC3CCN(C(=O)[C@](O)(c4ccccc4)C(F)(F)F)CC3)C2)cc1Cl (single isomer, unassigned)
II = CN(C)C(=O)c1ccc(OCCC[C@H]2CC23CCN(C(=O)[C@@](O)(c2ccccc2)C(F)(F)F)CC3)cc1Cl (single isomer, unassigned)
(Q) Of I and II , whose reported Emax is numerically smaller? Please respond with the label that marks your chosen entry.
(A) II
(II: 9%, I: 42%)

---

Biological target: glutathione-S-transferase (GST) tagged LXRalpha LBD (ligand binding domain) (Homo sapiens)
Construct: purchased Invitrogen pv4655
Sequence (Q13133 209-447 limits assumed): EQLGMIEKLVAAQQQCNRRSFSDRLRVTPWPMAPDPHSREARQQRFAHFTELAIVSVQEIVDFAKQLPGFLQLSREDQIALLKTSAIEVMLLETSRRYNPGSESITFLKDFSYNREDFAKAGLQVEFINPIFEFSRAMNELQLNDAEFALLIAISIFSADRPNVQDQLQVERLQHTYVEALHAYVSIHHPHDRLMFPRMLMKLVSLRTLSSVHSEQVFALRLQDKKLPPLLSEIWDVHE
Assay: biochemical
Details: read-out: LXR alpha actiivty at max dose, efficacy (% Emax) in relation to reference dual agonist T0901317
property label: Emax (%)

compound: CN(C)C(=O)c1ccc(OC[C@H]2C[C@@H]2C2CCN(C(=O)C(C)(C)c3ccccc3)CC2)cc1Cl (single isomer, unassigned)
target: glutathione-S-transferase (GST) tagged LXRalpha LBD (ligand binding domain) (Homo sapiens)
recorded number: 33

I = O=C(c1ccc(OCCCCC2CCN(C(=O)[C@](O)(c3ccccc3)C(F)(F)F)CC2)cc1Cl)N1CCC[C@@H]1CO (single isomer, unassigned)
II = CN(C)C(=O)c1ccc(OCCC2CC23CCN(C(=O)Cc2cccc(Br)c2)CC3)cc1Cl (single isomer, unassigned)
III = CN(C)C(=O)c1ccc(OCC2CC3(CCN(C(=O)C(C)(C)c4ccccc4)CC3)C2)cc1Cl
IV = COc1ccccc1[C@@](O)(C(=O)N1CCC2(CC1)C[C@@H]2CCCOc1ccc(C(=O)N(C)C)c(Cl)c1)C(F)(F)F (single isomer, unassigned)
(Q) Sort the 4 compounds by Emax; largest first, smallest last. # format: label list in the order the request specifies
(A) IV, I, III, II

// provenance: patent US11655216B2
